# tested-target: human ether-à-go-go-related gene (hERG) potassium channel (human, UniProt Q12809);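 note: peak tail current of the secondary pulse compared with the same well before compound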
# Sequence (Q12809 whole entry, looked up): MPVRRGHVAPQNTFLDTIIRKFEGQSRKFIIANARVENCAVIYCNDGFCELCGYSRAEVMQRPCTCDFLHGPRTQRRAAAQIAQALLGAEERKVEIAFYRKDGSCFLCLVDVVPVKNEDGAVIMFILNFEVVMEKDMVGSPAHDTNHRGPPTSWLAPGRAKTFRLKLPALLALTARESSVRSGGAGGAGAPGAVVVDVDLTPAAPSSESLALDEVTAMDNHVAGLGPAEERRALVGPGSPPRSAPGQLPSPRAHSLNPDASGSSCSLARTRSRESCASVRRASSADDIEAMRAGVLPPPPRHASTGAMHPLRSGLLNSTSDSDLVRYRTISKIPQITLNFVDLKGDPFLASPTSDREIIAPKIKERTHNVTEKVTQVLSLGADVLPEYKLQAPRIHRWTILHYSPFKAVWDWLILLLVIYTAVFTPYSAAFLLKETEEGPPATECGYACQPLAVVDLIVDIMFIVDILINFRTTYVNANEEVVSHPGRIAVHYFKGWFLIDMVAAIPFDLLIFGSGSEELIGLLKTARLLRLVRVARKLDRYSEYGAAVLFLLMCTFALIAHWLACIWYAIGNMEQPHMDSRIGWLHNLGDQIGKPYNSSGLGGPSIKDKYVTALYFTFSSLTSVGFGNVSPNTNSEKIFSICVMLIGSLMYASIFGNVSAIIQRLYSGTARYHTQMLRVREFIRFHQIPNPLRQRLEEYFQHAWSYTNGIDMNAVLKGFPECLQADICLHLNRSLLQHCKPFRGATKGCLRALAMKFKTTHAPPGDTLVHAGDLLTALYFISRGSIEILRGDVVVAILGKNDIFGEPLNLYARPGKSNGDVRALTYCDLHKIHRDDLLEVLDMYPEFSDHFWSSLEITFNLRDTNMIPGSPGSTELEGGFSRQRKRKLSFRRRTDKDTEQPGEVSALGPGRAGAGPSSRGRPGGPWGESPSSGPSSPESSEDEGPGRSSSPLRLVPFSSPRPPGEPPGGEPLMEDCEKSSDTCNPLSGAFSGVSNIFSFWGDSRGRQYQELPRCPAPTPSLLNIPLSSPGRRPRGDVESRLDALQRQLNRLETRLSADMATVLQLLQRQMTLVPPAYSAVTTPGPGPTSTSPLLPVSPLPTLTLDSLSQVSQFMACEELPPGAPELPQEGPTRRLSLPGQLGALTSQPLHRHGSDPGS
# test-name: primary screen, population patch clamp on CHO cells stably expressing hERG; higher = less effect of the substance
Out of some 310,000 compounds screened, about 14,000 (4.5%) showed an effect of 50% or more. The effect is printed as a negative number. The entries come from a sample that favours strong results as a whole.
Below: a set of entries, each annotated with reported hERG current change (%, negative = inhibition) at 10uM.
recorded-endpoint: hERG current change (%, negative = inhibition) at 10uM (%)

molecule	recorded-result
O=C(Cc1cccc2ccccc12)NNC(=O)c1cccs1	15.7
COc1ccccc1C(=O)NCC1(c2ccccc2)CCCC1	1.65
N#CCN1C(=O)NC2(CCCc3sccc32)C1=O (stereo not drawn)	11.1
COc1ccc(C(=O)Nc2cccc(/C=C(\CCC(=O)O)c3nc4ccccc4s3)c2)cc1	8.59
CC(=O)Nc1ccc(NC(=O)c2ccc(N(Cc3ccccc3C)S(C)(=O)=O)cc2)cc1	-7.68
Cc1ccc(-c2n[nH]c(=O)c3ccccc23)cc1N	5.75
CC(OC(=O)c1ccc2c(c1)C(=O)N(Cc1ccncc1)C2=O)C(=O)Nc1cccc(Cl)c1Cl (stereo not drawn)	-11.1
NC(=O)CC(NC(=O)c1cccc(Br)c1)c1ccc(NC2CCCCCCC2)c([N+](=O)[O-])c1 (stereo not drawn)	6.95
COC(=O)c1ccc(C(=O)OC)c(NC(=O)/C=C/C(=O)O)c1	5.06

====

# tested-target: human ether-à-go-go-related gene (hERG) potassium channel (human, UniProt Q12809);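 note: peak tail current of the secondary pulse compared with the same well before compound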
# test-name: primary screen, population patch clamp on CHO cells stably expressing hERG; higher = less effect of the substance
Hit rate of the full screen: of about 310,000 compounds, about 14,000 (4.5%) showed an effect of 50% or more. Effects have a minus sign here. Many of the other results were omitted from the sample, so strong results are more common in it than they were.
This listing pairs molecules with measured hERG current change (%, negative = inhibition) at 10uM.
recorded-endpoint: hERG current change (%, negative = inhibition) at 10uM (%)

molecule	recorded-result
O=C(CN1C(=O)NC2(CCCC2)C1=O)N1CCN(S(=O)(=O)c2cccc(F)c2)CC1	22.2
COc1ccc(N(C)C(=O)CCS(=O)(=O)c2cccc3nonc23)c(OC)c1	1.11
CCC1(CC)NC(=O)N(CC(=O)N2CCN(S(=O)(=O)c3cccc(F)c3)CC2)C1=O	7.12
CC1(c2ccccc2)NC(=O)N(CC(=O)N2CCN(S(=O)(=O)c3cccc([N+](=O)[O-])c3)CC2)C1=O (stereo not drawn)	5.57
CCOc1ccc(C(=O)CCC(=O)N2CCN(S(=O)(=O)c3cccc(F)c3)CC2)cc1	-30.7
CCOc1ccc(OCCC(=O)N2CCN(S(=O)(=O)c3ccc(F)cc3)CC2)cc1	-6.61
O=C(Cc1ccc(NC2=NC3CS(=O)(=O)CC3S2)cc1)NCCc1ccccc1 (stereo not drawn)	6.22
Cc1ccc(S(=O)(=O)N2CCCCC2CCNC(=O)C(=O)NCC2CCCO2)cc1 (stereo not drawn)	-23.6
O=C(CN1C(=O)NC2(CCCCC2)C1=O)N1CCN(S(=O)(=O)c2ccc(Cl)s2)CC1	4.79

====

# tested-target: human ether-à-go-go-related gene (hERG) potassium channel (human);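 note: peak tail current of the secondary pulse compared with the same well before compound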
# test-name: primary screen, population patch clamp on CHO cells stably expressing hERG; higher = less effect of the substance
In all, about 310,000 compounds went through this assay and about 14,000 (4.5%) showed an effect of 50% or more. The effect is printed as a negative number. The sample holds strong results, similar compounds and a random draw of the others, so the mix is not that of the screen.
Listing: hERG current change (%, negative = inhibition) at 10uM of selected compounds
recorded-endpoint: hERG current change (%, negative = inhibition) at 10uM (%)

compound	tested-target	recorded-result
COc1ccc(-c2nnc3sc(C4CCCCC4)nn23)cc1OC	human ether-à-go-go-related gene (hERG) potassium channel (human)	-51.1
CC1CCCC(C)N1C(=O)COC(=O)C1CCN(S(=O)(=O)c2c(Cl)cccc2Cl)CC1 (stereo not drawn)	human ether-à-go-go-related gene (hERG) potassium channel (human)	-30.1
CC1CCCN(C(=O)COC(=O)C2CCN(S(=O)(=O)c3c(Cl)cccc3Cl)CC2)C1 (stereo not drawn)	human ether-à-go-go-related gene (hERG) potassium channel (human)	-39.4
COc1cccc(-c2nnc3sc(C4CCCCC4)nn23)c1	human ether-à-go-go-related gene (hERG) potassium channel (human)	-45.2
Oc1ccc2ccccc2c1C=Nc1ccc(N2CCOCC2)cc1	human ether-à-go-go-related gene (hERG) potassium channel (human)	3.04
COC(=O)C(NC(=O)c1ccc(F)cc1)(Nc1ncc(S(=O)(=O)c2ccc([N+](=O)[O-])cc2)s1)C(F)(F)F (stereo not drawn)	human ether-à-go-go-related gene (hERG) potassium channel (human)	-52.9
Cn1c(=Nc2ccc(N3CCOCC3)cc2)ccc2ccccc21	human ether-à-go-go-related gene (hERG) potassium channel (human)	-47.5
CCCCN1C(=S)NC[C@@H]1Cc1ccccc1	human ether-à-go-go-related gene (hERG) potassium channel (human)	-11.8
CCOC(=O)N1CCN(C(=O)COC(=O)C2CCN(S(=O)(=O)c3c(C)c(C)cc(C)c3C)CC2)CC1	human ether-à-go-go-related gene (hERG) potassium channel (human)	-51.9
